The entries below are paired with their reported Rate of accumulation (ethidium bromide).
System: M. smegmatis
Assay Name: Ethidium bromide accumulation assay in M. smegmatis
Format: cell-based
Experimental Context: analogues 100 µM, verapamil 102 µM, with glucose, rate from 5–14 minutes
Expressed in RFUs/min, but write only the number.

{"columns": ["Compound", "Unit Info", "Rate of accumulation (ethidium bromide)"],
 "data": [
  ["Fc1ccc(C(OCCN2CCN(CCCc3ccccc3)CC2)c2ccc(F)cc2)cc1 [vanoxerine, reference compound]", "RFUs/min", 3000],
  ["CCCCCCCCCC(=O)OC(CCN1CCN(CCOC(c2ccc(F)cc2)c2ccc(F)cc2)CC1)c1ccccc1 (stereo not drawn)", "RFUs/min", 1000],
  ["Fc1ccc(C(OCCN2CCN(CC3CCCCC3)CC2)c2ccc(F)cc2)cc1", "RFUs/min", 1000],
  ["Fc1ccc(C(OCCN2CCC(Cc3ccccc3)CC2)c2ccc(F)cc2)cc1", "RFUs/min", 3000],
  ["Oc1ccc(CN2CCN(CCOC(c3ccc(F)cc3)c3ccc(F)cc3)CC2)cc1", "RFUs/min", 1100],
  ["O=C(c1ccccc1)N1CCN(CCOC(c2ccc(F)cc2)c2ccc(F)cc2)CC1", "RFUs/min", 600]
]}

Given the compound c1ccc(CCCN2CCN(CCOC(c3ccccc3)c3ccccc3)CC2)cc1 [GBR12935, reference compound] , what is its reported Rate of accumulation (ethidium bromide)?
1100

Given the compound Fc1ccc(CN2CCN(CCOC(c3ccc(F)cc3)c3ccc(F)cc3)CC2)cc1 , what is its reported Rate of accumulation (ethidium bromide)?
1300

Given the compound C#CCOC(CCN1CCN(CCOC(c2ccc(F)cc2)c2ccc(F)cc2)CC1)c1ccccc1 (stereo not drawn) , what is its reported Rate of accumulation (ethidium bromide)?
4500

Given the compound COc1ccc(CCN(C)CCCC(C#N)(c2ccc(OC)c(OC)c2)C(C)C)cc1OC (stereo not drawn) [verapamil, reference compound] , what is its reported Rate of accumulation (ethidium bromide)?
2900

Given the compound Fc1ccc(C(OCCN2CCNCC2)c2ccc(F)cc2)cc1 , what is its reported Rate of accumulation (ethidium bromide)?
2700

Given the compound OC(CCN1CCN(CCOC(c2ccc(F)cc2)c2ccc(F)cc2)CC1)c1ccccc1 (stereo not drawn) , what is its reported Rate of accumulation (ethidium bromide)?
4500

###

Test system: M. bovis BCG
Assay type: cell-based
Experimental Context: analogues 100 µM, verapamil 102 µM, with glucose, end of 60 min assay

{"columns": ["Compound", "% Change in fluorescence (efflux)"],
 "data": [
  ["OC(CCN1CCN(CCOC(c2ccc(F)cc2)c2ccc(F)cc2)CC1)c1ccccc1 (centres unmarked)", "–16 ± 0.4%"],
  ["Fc1ccc(C(OCCN2CCNCC2)c2ccc(F)cc2)cc1", "–16 ± 0.4%"]
]}

###

Tested Target: human dopamine transporter (Homo sapiens, UniProt Q01959)
Sequence (Q01959 whole entry): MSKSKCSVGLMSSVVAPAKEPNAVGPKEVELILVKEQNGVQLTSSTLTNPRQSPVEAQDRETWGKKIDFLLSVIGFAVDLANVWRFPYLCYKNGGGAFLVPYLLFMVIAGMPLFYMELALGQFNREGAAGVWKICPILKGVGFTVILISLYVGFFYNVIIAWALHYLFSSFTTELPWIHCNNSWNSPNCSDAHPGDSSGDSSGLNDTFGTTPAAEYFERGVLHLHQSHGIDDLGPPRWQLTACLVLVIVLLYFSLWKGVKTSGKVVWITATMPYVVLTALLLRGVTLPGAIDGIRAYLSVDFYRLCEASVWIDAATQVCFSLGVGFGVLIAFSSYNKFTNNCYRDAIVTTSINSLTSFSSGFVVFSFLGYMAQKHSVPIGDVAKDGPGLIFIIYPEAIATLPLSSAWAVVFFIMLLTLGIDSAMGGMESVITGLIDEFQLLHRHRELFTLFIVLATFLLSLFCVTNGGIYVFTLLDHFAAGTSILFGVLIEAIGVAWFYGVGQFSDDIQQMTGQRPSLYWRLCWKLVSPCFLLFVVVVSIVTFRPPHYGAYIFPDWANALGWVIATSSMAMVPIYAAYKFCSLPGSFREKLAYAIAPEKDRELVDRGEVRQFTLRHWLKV
Assay Name: cell-based
Experimental Context: CHO cells transfected with human dopamine transporter; 0.3 µM [3H] dopamine, 90 min; N = 3; read-out: IC50 against dopamine transporter
Readout Name: IC50

{"columns": ["Molecule", "IC50"],
 "data": [
  ["Fc1ccc(C(OCCN2CCC(Cc3ccccc3)CC2)c2ccc(F)cc2)cc1 [Compound 3]", "140 nM"]
]}

Given the molecule C#CCOC(CCN1CCN(CCOC(c2ccc(F)cc2)c2ccc(F)cc2)CC1)c1ccccc1 (stereo not drawn) [Compound 10] , what is its reported IC50?
< 100 nM

Given the molecule OC(CCN1CCN(CCOC(c2ccc(F)cc2)c2ccc(F)cc2)CC1)c1ccccc1 (stereo not drawn) [Compound 9] , what is its reported IC50?
< 100 nM
